Test system: COLO 205
Assay: Cytotoxicity against human COLO205 cells by MTT assay
Format: functional, cell-based

compound	IC50
COc1cccc2c1C(=O)c1c(O)c3c(c(O)c1C2=O)C[C@@](O)(C(=O)CO)C[C@@H]3O[C@H]1C[C@H](N)[C@H](O)[C@H](C)O1 [DOXORUBICIN]	500 nM
CCC[C@H]1OC(=O)[C@H](O)CC/C=C/C[C@@H]1O	5100 nM
